Reported GI50 by item:
tested on: LAL-CUN-2; assay: Cell proliferation assay, LAL-CUN-2 (ALL); format: cell-based; conditions: 48 hours of treatment; Table 3

Worked cases, GI50 given:
# Compound, Result
rows = [
    ("CCc1ccc(-c2cc(NCC3CCN(C)CC3)c3cc(OC)c(OCCCN4CCCC4)cc3n2)o1 [Compound 3-42]", "0.1 to 1 µM"),
    ("COc1cc2c(NCC3CCN(C)CC3)cc(-c3ccc(C)o3)nc2cc1OCCCN1CCCC1 [Compound 3-07]", "0.1 to 1 µM"),
    ("COc1cc2c(NC3CCN(C)CC3)cc(-c3ccc(C)[nH]3)nc2cc1OCCCN1CCCC1 [Compound 3-31]", "≤ 10 µM"),
]

Note: attention shifts to another entry.
*Q* Answer with the recorded GI50 for the compound listed here: CCc1ccc(-c2cc(NC3CCN(C)CC3)c3cc(OC)c(OCCCN4CCCC4)cc3n2)o1 [Compound 3-41]
*A* 0.1 to 1 µM

###

biological target: DNMT1 (Homo sapiens, UniProt P26358); assay: DNMT1 enzyme activity assay (TR-FRET, EPIgeneous methyltransferase assay); format: biochemical
Sequence (P26358 whole entry): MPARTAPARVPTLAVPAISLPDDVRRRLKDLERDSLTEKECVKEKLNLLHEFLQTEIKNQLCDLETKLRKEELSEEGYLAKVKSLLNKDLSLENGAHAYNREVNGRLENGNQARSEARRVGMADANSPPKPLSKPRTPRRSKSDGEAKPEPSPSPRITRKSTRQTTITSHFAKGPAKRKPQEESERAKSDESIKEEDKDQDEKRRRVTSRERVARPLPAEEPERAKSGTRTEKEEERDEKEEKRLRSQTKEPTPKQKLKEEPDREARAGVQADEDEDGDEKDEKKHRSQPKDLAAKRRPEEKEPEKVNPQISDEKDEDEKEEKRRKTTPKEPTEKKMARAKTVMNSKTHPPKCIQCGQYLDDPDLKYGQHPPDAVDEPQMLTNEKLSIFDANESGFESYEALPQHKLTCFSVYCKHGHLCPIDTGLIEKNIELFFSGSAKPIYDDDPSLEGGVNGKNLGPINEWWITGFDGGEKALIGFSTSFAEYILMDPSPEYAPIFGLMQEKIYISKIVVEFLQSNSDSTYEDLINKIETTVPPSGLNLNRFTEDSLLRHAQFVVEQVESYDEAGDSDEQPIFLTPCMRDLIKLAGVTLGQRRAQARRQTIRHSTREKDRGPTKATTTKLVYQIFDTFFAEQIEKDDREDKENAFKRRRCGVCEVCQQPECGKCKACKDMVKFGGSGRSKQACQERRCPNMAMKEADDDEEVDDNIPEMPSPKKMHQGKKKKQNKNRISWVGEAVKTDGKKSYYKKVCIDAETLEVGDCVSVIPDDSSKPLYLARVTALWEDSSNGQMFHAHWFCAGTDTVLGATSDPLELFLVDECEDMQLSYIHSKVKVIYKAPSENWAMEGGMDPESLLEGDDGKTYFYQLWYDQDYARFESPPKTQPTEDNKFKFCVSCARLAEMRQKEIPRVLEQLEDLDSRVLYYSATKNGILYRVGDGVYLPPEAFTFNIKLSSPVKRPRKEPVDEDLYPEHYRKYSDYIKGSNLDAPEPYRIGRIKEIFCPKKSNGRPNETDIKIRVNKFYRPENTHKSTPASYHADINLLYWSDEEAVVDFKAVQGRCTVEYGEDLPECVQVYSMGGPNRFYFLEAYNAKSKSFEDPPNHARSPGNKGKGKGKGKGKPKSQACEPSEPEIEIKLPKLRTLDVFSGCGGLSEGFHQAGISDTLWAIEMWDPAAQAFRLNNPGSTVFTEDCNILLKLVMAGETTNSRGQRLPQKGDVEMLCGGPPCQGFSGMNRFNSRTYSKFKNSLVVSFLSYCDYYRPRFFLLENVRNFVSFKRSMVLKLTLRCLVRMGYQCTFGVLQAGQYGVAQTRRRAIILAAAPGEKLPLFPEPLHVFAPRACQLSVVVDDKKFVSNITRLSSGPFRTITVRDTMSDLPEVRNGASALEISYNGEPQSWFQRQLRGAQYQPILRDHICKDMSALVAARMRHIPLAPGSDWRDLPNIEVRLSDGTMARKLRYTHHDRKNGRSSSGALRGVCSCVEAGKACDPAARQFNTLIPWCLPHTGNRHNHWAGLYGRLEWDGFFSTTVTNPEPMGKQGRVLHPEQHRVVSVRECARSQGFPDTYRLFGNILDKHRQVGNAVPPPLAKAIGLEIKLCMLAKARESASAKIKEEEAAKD
Quantity: IC50

# Chemical smiles, IC50
data = [
    ("COc1cc2c(NCCC(F)(F)F)cc(-c3ccc(C)o3)nc2cc1OCCCN1CCCC1", "1000 to 10000 nM"),
    ("COc1cc2c(NC3CCN(C)CC3)cc(-c3ccc(C#N)o3)nc2cc1OCCCN1CCCC1", "1000 to 10000 nM"),
    ("COc1cc(NC2CCN(C)CC2)c2cc(OC)c(OCCCN3CCCC3)cc2n1", "1000 to 10000 nM"),
]

*Q* Answer with the recorded IC50 for the molecule listed here: `COc1cc2c(NC3CCN(C)CC3)cc(-c3ccc4occc4c3)nc2cc1OCCCN1CCCC1`
*A* 500 to 1000 nM

*Q* Answer with the recorded IC50 for the molecule listed here: `COc1cc2c(NC3CCN(C)CC3)cc(-c3ccc(CO)o3)nc2cc1OCCCN1CCCC1`
*A* 500 to 1000 nM

*Q* Answer with the recorded IC50 for the molecule listed here: `COc1cc2c(NCC3CCCC3)cc(-c3ccc(C)o3)nc2cc1OCCCN1CCCC1`
*A* 1000 to 10000 nM

*Q* Answer with the recorded IC50 for the molecule listed here: `CCc1ccc(-c2cc(NC3CCN(C4CC4)CC3)c3cc(OC)c(OCCCN4CCCC4)cc3n2)o1`
*A* 100 to 500 nM

*Q* Answer with the recorded IC50 for the molecule listed here: `COc1cc2c(NC3CCN(C)CC3)cc(N3CCN(C)CC3)nc2cc1OCCCN1CCCC1`
*A* 500 to 1000 nM

###

Target: DNMT1 (Homo sapiens)
Assay: DNMT1 enzyme activity assay (TR-FRET, EPIgeneous methyltransferase assay)
Assay type: biochemical
Procedure: The biochemical assay to measure DNMT1 enzyme activity relies on time-resolved fluorescence energy transfer (TR-FRET) between lumi4-Tb (donor) and d2 (acceptor) using the EPIgeneous methyltransferase assay (CisBio Cat#62SAHPEB). […] For each well, fluorescence was measured at 620 nm and 665 nm. A ratio (665 nm/620 nm) was then calculated in order to minimize medium interferences. […] Calculated IC50 values were determined using GraphPrism using 4-parameters inhibition curve.
Quantity: IC50

Worked cases, IC50 given:
# Compound, IC50
records = [
    ("COc1cc2c(NC3CCN(C)CC3)cc(-c3ccccc3C)nc2cc1OCCCN1CCCC1", "1 to 10 µM"),
    ("CCNCc1ccc(-c2cc(NC3CCN(C)CC3)c3cc(OC)c(OCCCN4CCCC4)cc3n2)o1", "0.5 to 1 µM"),
    ("COc1cc2c(NC3CCN(C)CC3)cc(C3CCCCC3)nc2cc1OCCCN1CCCC1", "0.1 to 0.5 µM"),
    ("COc1cc2c(NC3CCN(C)CC3)cc(-c3ccc(C)[nH]3)nc2cc1OCC1CCNCC1", "0.1 to 0.5 µM"),
    ("COc1cc2c(NC3CC4(CCNCC4)C3)cc(-c3ccc(C)[nH]3)nc2cc1OCC1CCNCC1", "0.1 to 0.5 µM"),
    ("COc1cc2c(NC3CCC(C)(O)CC3)cc(-c3ccc(C)o3)nc2cc1OCCCN1CCCC1 (centres unmarked)", "1 to 10 µM"),
    ("COc1cc2c(NC3CCCC3)cc(C)nc2cc1OCCCN1CCCC1", "1 to 10 µM"),
]

*Q* Answer with the recorded IC50 for the compound listed here: `COc1cc2c(NC3CCOCC3)cc(-c3ccc(C)o3)nc2cc1OCCCN1CCCC1`
*A* 1 to 10 µM

###

Target: human G9a enzyme (Homo sapiens, UniProt Q96KQ7)
Sequence (Q96KQ7 1-1210): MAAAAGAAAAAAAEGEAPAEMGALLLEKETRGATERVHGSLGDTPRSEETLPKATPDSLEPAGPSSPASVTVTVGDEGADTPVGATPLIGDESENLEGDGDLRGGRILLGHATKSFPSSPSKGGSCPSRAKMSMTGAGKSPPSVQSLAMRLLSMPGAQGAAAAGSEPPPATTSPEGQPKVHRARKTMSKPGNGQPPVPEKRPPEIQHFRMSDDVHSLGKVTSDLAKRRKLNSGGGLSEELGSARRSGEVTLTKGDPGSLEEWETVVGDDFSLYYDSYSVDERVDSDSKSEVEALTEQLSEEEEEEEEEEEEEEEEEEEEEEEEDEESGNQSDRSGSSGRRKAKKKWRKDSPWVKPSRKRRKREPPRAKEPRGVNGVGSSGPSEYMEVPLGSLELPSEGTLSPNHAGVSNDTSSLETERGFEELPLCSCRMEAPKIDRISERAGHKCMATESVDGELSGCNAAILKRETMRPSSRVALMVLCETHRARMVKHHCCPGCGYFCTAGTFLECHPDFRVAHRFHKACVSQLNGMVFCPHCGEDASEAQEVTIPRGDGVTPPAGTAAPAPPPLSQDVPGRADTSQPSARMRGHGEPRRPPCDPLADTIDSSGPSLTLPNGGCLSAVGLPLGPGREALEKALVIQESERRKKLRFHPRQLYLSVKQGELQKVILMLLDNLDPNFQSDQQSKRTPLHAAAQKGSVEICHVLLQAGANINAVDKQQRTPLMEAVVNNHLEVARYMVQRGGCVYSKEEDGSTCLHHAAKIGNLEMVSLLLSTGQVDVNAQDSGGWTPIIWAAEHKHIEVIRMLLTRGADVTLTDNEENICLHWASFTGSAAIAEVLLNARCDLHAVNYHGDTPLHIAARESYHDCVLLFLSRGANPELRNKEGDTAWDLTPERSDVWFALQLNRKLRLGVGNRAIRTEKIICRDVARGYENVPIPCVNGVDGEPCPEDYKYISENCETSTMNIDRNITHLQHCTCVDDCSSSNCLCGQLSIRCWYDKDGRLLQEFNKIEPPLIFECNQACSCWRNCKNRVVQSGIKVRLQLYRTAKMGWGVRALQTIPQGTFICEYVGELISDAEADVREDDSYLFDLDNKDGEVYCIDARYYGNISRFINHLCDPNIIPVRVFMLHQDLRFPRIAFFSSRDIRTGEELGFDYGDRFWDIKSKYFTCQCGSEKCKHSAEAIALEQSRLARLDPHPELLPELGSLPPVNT
Reported IC50 by item:

Worked cases, IC50 given:
# Chemical smiles, IC50
data = [
    ("COc1cc2c(NC3CCN(C)CC3)cc(-c3cc4ccccc4o3)nc2cc1OCCCN1CCCC1", "1 to 10 µM"),
    ("COCCNc1cc(-c2ccc(C)o2)nc2cc(OCCCN3CCCC3)c(OC)cc12", "0.1 to 0.5 µM"),
    ("CCc1ccc(-c2cc(NCC3CCN(C4CC4)CC3)c3cc(OC)c(OCCCN4CCCC4)cc3n2)o1", "0.1 to 0.5 µM"),
    ("COc1cc2c(NC3CCN(C)CC3)cc(-c3ccc(CN(C)C)o3)nc2cc1OCCCN1CCCC1", "0.1 to 0.5 µM"),
    ("COc1cc2c(NC3CCNCC3)cc(C3CCCCC3)nc2cc1OCCCN1CCCC1", "< 0.1 µM"),
    ("COc1cc2c(NCC3CCN(C)CC3)cc(-c3ccc(C)o3)nc2cc1OCC1CCNCC1", "0.1 to 0.5 µM"),
    ("Cc1ccc(-c2cc(NC3CCN(C)CC3)c3cc(OCC(F)(F)F)c(OCCCN4CCCC4)cc3n2)o1", "0.5 to 1 µM"),
]

Note: attention shifts to another entry.
*Q* Answer with the recorded IC50 for the molecule listed here: `COc1cc2c(NC3CCN(C)CC3)cc(C3CCCCC3)nc2cc1OCCCN1CCCC1`
*A* < 0.1 µM

###

Reported pIC50 by item:
molecular target: DNMT1 (Homo sapiens); assay: DNMT1 enzyme activity assay (TR-FRET, EPIgeneous methyltransferase assay); assay type: biochemical
pIC50: −log10 of the molar value.

# Compound, Quantity, Result
rows = [
    ("COc1cc2c(NC3CCN(C)CC3)cc(-c3ccc(C)[nH]3)nc2cc1OCCCN1CCCC1 [Compound 3-31]", "pIC50", "6.30 to 7.00"),
    ("COc1cc2c(NC3CCN(C)CC3)cc(-c3cc[nH]c(=O)c3)nc2cc1OCCCN1CCCC1 [Compound 3-37]", "pIC50", "5.00 to 6.00"),
    ("COc1cc2c(NC3CC4(CCN(C)CC4)C3)cc(-c3ccc(C)[nH]3)nc2cc1OCCCN1CCCC1 [Compound 5-05]", "pIC50", "6.30 to 7.00"),
    ("COc1cc2c(NCC3CCN(C)C(=O)C3)cc(-c3ccc(C)[nH]3)nc2cc1OCC1CCNCC1 (stereo not drawn) [Compound 11-07]", "pIC50", "6.00 to 6.30"),
    ("COc1cc2c(NC3CCN(C)CC3)cc(C3CCC(C)O3)nc2cc1OCCCN1CCCC1 (stereo not drawn) [Compound 15-01]", "pIC50", "5.00 to 6.00"),
    ("COc1cc2c(NC3CCN(C)CC3)cc(-c3ccco3)nc2cc1OCCCN1CCCC1 [Compound 3-40]", "pIC50", "6.30 to 7.00"),
    ("CCc1ccc(-c2cc(NC3C4CCC3CN(C)C4)c3cc(OC)c(OCCCN4CCCC4)cc3n2)o1 (stereo not drawn) [Compound 3-51]", "pIC50", "6.30 to 7.00"),
    ("COc1cc2c(NCC3CCN(C)CC3)cc(-c3ccc(C)[nH]3)nc2cc1OCC1CCNCC1 [Compound 11-06]", "pIC50", "6.30 to 7.00"),
]

*Q* Answer with the recorded pIC50 for the compound listed here: CCc1ccc(-c2cc(NC3CC4CCC(C3)N4C)c3cc(OC)c(OCCCN4CCCC4)cc3n2)o1 (stereo not drawn) [Compound 3-50]
*A* 6.30 to 7.00

*Q* Answer with the recorded pIC50 for the compound listed here: COc1cc2c(NC3CCNCC3)cc(-c3ccc(C)o3)nc2cc1OCCCN1CCCC1 [Compound 3-08]
*A* 6.30 to 7.00

*Q* Answer with the recorded pIC50 for the compound listed here: COc1cc2c(NC3CCN(C(C)C)CC3)cc(C3CCCCC3)nc2cc1OCCCN1CCCC1 [Compound 7-05]
*A* 6.00 to 6.30

*Q* Answer with the recorded pIC50 for the compound listed here: COc1cc2c(NC3CC3)cc(-c3ccc(C)[nH]3)nc2cc1OCC1CCNCC1 [Compound 11-08]
*A* 5.00 to 6.00

*Q* Answer with the recorded pIC50 for the compound listed here: COc1cc2c(NC3CCN(C)CC3)cc(-c3ccc(C)o3)nc2cc1OC1CCN(C(=O)OC(C)(C)C)CC1 [Compound 19-03]
*A* 5.00 to 6.00

*Q* Answer with the recorded pIC50 for the compound listed here: COc1cc2c(NC3CCN(C)CC3)cc(-c3ccc(C)s3)nc2cc1OCCCN1CCCC1 [Compound 3-36]
*A* 6.00 to 6.30

*Q* Answer with the recorded pIC50 for the compound listed here: CCc1ccc(-c2cc(NC3CC4(CCNCC4)C3)c3cc(OC)c(OCCCN4CCCC4)cc3n2)o1 [Compound 4-03]
*A* > 7.00

*Q* Answer with the recorded pIC50 for the compound listed here: COc1cc2c(NC3CCNC(=O)C3)cc(-c3ccc(C)o3)nc2cc1OCCCN1CCCC1 (stereo not drawn) [Compound 3-18]
*A* 5.00 to 6.00

*Q* Answer with the recorded pIC50 for the compound listed here: COc1cc2c(NC3CCCC3)cc(-c3ccc(C)[nH]3)nc2cc1OCCCN1CCCC1 [Compound 3-38]
*A* 6.30 to 7.00

*Q* Answer with the recorded pIC50 for the compound listed here: COc1cc2c(NC3CCN(C)CC3)cc(-c3ccn(C)n3)nc2cc1OCCCN1CCCC1 [Compound 3-33]
*A* 5.00 to 6.00
